Data origin: PubChem BioAssay AID434987

Tested on: M. tuberculosis H37Rv growth inhibition with meropenem
Assay: dose response, H37Rv, with and without meropenem (AID 434987);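 further: growth over 7 days at 37 °C before Alamar Blue read on day 9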
Settings: measured here: IC90 with meropenem
recorded.endpoint: IC90

>>> observed_result("O=C(Cc1ccccc1Cl)Nc1nc2ccccc2[nH]1")
"> 25 µM"
>>> observed_result("COc1ccc(NC(=O)CSc2nncn2C)c([N+](=O)[O-])c1")
"> 100 µM"
>>> observed_result("CCN=c1scc(-c2ccccc2)n1/N=C/c1ccccn1")
"> 100 µM"
>>> observed_result("CSc1ccccc1C(=O)Nc1ccc2c(c1)OCCO2")
"> 100 µM"
>>> observed_result("Cc1ccc(-n2nnnc2Sc2nc([N+](=O)[O-])nn2C)cc1")
"> 100 µM"

Reported IC90 (M. tuberculosis H37Rv growth inhibition with meropenem) for entry CCc1ccc(NC(=O)C2C3/C=C\CCCCC32)cc1 (stereo unspecified) is > 100 µM

Short answer on M. tuberculosis H37Rv growth inhibition with meropenem for CCOC(=O)c1ccc(C(=O)NNC(=O)C2CC=CCC2)cc1 (stereo unspecified) , IC90: 40 µM

Entry COCCOC(=O)c1c(C)oc2ccc(OCc3cc(C(=O)OC)oc3C)cc12 ; assay system M. tuberculosis H37Rv growth inhibition with meropenem; IC90 recorded at > 100 µM

# value of IC90, M. tuberculosis H37Rv growth inhibition with meropenem, item N#Cc1c(NC(=O)CSc2nc(-c3ccco3)cc(C(F)(F)F)n2)sc2c1CCCC2 = > 100 µM

Log: M. tuberculosis H37Rv growth inhibition with meropenem, compound Cc1cc(C2C(=O)c3ccccc3C2=O)c(C)c(C)c1C , IC90 = 16.4 µM

So the reported IC90 for COc1ccc(OC)c(-c2cc(C(=O)Nc3c(C)n(C)n(-c4ccccc4)c3=O)no2)c1 , on M. tuberculosis H37Rv growth inhibition with meropenem, turned out to be 49.5 µM

Tested system M. tuberculosis H37Rv growth inhibition with meropenem; IC90 recorded for C/C(=N/NC(=O)c1cccs1)c1ccc(NC(=O)COc2ccc(Cl)cc2)cc1 was > 100 µM

Reading of IC90 for Cc1ccc2nc(-c3ccc(NC(=S)NC(=O)C(C)C)cc3)sc2c1 with M. tuberculosis H37Rv growth inhibition with meropenem: > 100 µM

With M. tuberculosis H37Rv growth inhibition with meropenem as the test system, COC(=O)c1c(C)n(-c2ccc(C)cc2)c2ccc(O)cc12 showed IC90 of > 100 µM

Item: CCc1ccc2oc(-c3cc(N)cc(C)c3O)nc2c1 | System: M. tuberculosis H37Rv growth inhibition with meropenem | IC90: > 100 µM

Summary: C/C(=N\NC(=S)NCc1ccccc1)c1cccc(Br)c1 , M. tuberculosis H37Rv growth inhibition with meropenem, IC90 = > 100 µM

# lookup: CN(C)S(=O)(=O)c1ccc(C(=O)/C=C/c2cccnc2)cc1 on M. tuberculosis H37Rv growth inhibition with meropenem, IC90 = 12.1 µM

Lab note: compound CCNC(=S)N/N=C1\C(=O)c2cccc3cccc1c23 tested on M. tuberculosis H37Rv growth inhibition with meropenem; recorded IC90 was 7.61 µM

---

Tested on: M. tuberculosis H37Rv growth inhibition with meropenem
Assay: dose response, H37Rv, with and without meropenem (AID 434987);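 further: growth over 7 days at 37 °C before Alamar Blue read on day 9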
Details: M. tuberculosis H37Rv growth inhibition; measured here: IC50 without meropenem
IC50 values, listed per item

The examples below pair each entry with its known result.
>>> observed_result("COc1ccc(/C=C2\\N=C(SC)N(c3ccccc3OC)C2=O)cc1")
"> 100 µM"
>>> observed_result("Cc1sc2nc(C(C)Nc3ccccc3N3CCOCC3)[nH]c(=O)c2c1C (stereo not given)")
"> 100 µM"
>>> observed_result("Cn1c(/C=C/c2ccc(Cl)cc2)nc2ccccc2c1=O")
"> 100 µM"

Field IC50 (system: M. tuberculosis H37Rv growth inhibition with meropenem) for entry CC(C)Cn1c2c(c(O)c(C(=O)Nc3ccc(F)cc3)c1=O)CCCC2 = > 100 µM

Kindly note: M. tuberculosis H37Rv growth inhibition with meropenem, CCN(CC)S(=O)(=O)c1ccc(N/N=C(\C)c2ccc(OC)cc2O)nc1 , IC50 value reported: 5.71 µM

// returns IC50 for N#Cc1c(SCC(=O)O)nc(N2CCCCC2)c2c1CCCC2 with M. tuberculosis H37Rv growth inhibition with meropenem; value = 49.6 µM

Form: item O=C(CSCC(=O)Nc1ccccc1)N/N=C/c1c(O)ccc2ccccc12 ; test system M. tuberculosis H37Rv growth inhibition with meropenem; IC50: > 100 µM

Query Cc1ccc(C2=NN3C(=O)c4ccccc4C3C2)cc1 (stereo not given) on M. tuberculosis H37Rv growth inhibition with meropenem; IC50 returned: 49 µM

Assay M. tuberculosis H37Rv growth inhibition with meropenem, sample O=C(CC12CC3CC(CC(C3)C1)C2)NCc1ccc(F)cc1 , IC50 read: > 100 µM

Entry CCCn1c2ccccc2c2nnc(SCC(=O)OCC)nc21 , tested on M. tuberculosis H37Rv growth inhibition with meropenem, has a reported IC50 of 29.1 µM
